// reported composite z-score for each item listed
Tested on: Human papillomavirus type 1a E7 protein (residues 1-88)
Procedure details: HPV1a E7 small-molecule binders, primary screen, biochemical, small-molecule microarray, residues 1-88, 635 nm (AID 1129)
Measurement parameters: small-molecule microarray binding, fluorescence 635 nm; higher = more signal
Provide a numeric answer; units are not to be included.

| Compound | Measured target | composite z-score |
| --- | --- | --- |
| COc1ccc([Si](C)(C)[C@H]2[C@H](CCn3cc([C@H](O)c4ccccc4)nn3)O[C@@]3(C(=O)N(C)c4c(Br)cc(C)cc43)[C@@H]2C)cc1 | Human papillomavirus type 1a E7 protein (residues 1-88) | -0.212 |
| CCOC(=O)C1=CCC(c2cc3ccccc3[nH]2)N(S(=O)(=O)c2ccccc2[N+](=O)[O-])C1 (configuration not stated) | Human papillomavirus type 1a E7 protein (residues 1-88) | 1.2 |
| [N-]=[N+]=Nc1ccccc1[C@@H]1OC(c2ccc(OCCCO)cc2)=N[C@]1(Cc1ccccc1)C(N)=O | Human papillomavirus type 1a E7 protein (residues 1-88) | 0.445 |
| COCCOC(=O)N1C(=O)[C@@]2(c3cc(C#CCCO)ccc31)[C@H](c1ccccc1OCCO)N1[C@H](c3ccccc3)[C@H](c3ccccc3)OC(=O)[C@H]1[C@@H]2C(=O)N1CCc2cc(OC)c(OC)cc2C1 | Human papillomavirus type 1a E7 protein (residues 1-88) | 1.22 |
| CC(C)C[C@@H]1NC(=O)[C@@]23C(=O)N[C@@H](Cc4ccccc4)C2[C@H](C)[C@@]2(C)O[C@H]2C3/C=C/C/C=C\CNC(=O)[C@@H](CC(C)C)NC1=O (some centres not stated) | Human papillomavirus type 1a E7 protein (residues 1-88) | 0.409 |

Noted for COC(=O)C1=CC(CCCO)=CC(C2CC2)N(Cc2cccc(OC(F)(F)F)c2)C=C1C(=O)OC (configuration not stated) : its composite z-score reads 0.846

Entry under test: C=CCC(OC(C)=O)[C@@H]1[C@@H](N(Cc2ccc(-c3ccccc3)cc2)C(=O)c2cccc3ccccc23)c2cc(OCCCO)ccc2N1C(=O)c1ccc2ccccc2c1 (some centres not stated) . Its composite z-score was 0.216

---

Procedure details: modulators of S6 phosphorylation in cells, primary screen, cell-based, A549, cytoblot, luminescence, serum-stimulated (AID 1158);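 further: serum-stimulated A549 lung adenocarcinoma cells; signal is phosphorylated S6 detected by cytoblot immunostaining with HRP secondary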
Measurement parameters: A549 phospho-S6 cytoblot, 5 h, higher = more signal
Value type: z-score

| Molecule | z-score |
| --- | --- |
| C=CCC(OC(C)=O)[C@@H]1[C@@H](N(Cc2cc3ccccc3o2)C(=O)Cc2ccc(OC)cc2)c2cc(OCCCO)ccc2N1C(=O)Cc1ccc(OC)cc1 (stereo partly specified) | -0.0725 |
| COc1ccc(C#Cc2ccc3c(c2)[C@]2(C(=O)N3)[C@H](C(=O)Nc3nc4ccccc4s3)[C@H]3C(=O)O[C@H](c4ccccc4)[C@H](c4ccccc4)N3[C@@H]2c2ccc(OCCO)cc2)cc1 | 0.13 |
| CCc1cccc(NC(=O)O[C@H]2[C@H](OC(=O)Nc3ccc4c(c3)OCO4)[C@H](OC(=O)Nc3ccc4c(c3)OCO4)[C@@H](OC)O[C@@H]2CO)c1 | 0.921 |
| C=CCC(OC(C)=O)[C@@H]1[C@@H](N(Cc2cccc3ccccc23)C(=O)c2ccc(C)cc2)c2cc(OCCCO)ccc2N1C(=O)c1ccc2ccccc2n1 (stereo partly specified) | 1.62 |
| C/C=C/CN(C(=O)C#Cc1ccccc1)[C@H](CO[Si](C)(C)C(C)(C)C)c1ccccc1 | 1.52 |

Here is the next item to consider.
// z-score lookup, molecule = COc1ccc([Si](C)(C)[C@H]2[C@H](CCn3cc([C@H](O)c4ccccc4)nn3)O[C@@]3(C(=O)N(c4ccccc4)c4ccccc43)[C@@H]2C)cc1 , result: 0.448
